Attribute: EC50
target: human TREM2 (Homo sapiens, UniProt Q9NZC2); construct: expressed in transfected cells; host or cells: HEK293T-hTREM2 cells (HEK cell line expressing human TREM2 and DAP12); experiment: TREM2 agonist potency by cellular phosphorylation of Syk (AlphaLisa) in HEK293T-hTREM2 cells expressing human TREM2 and DAP12; type: cell-based; conditions: HEK293 cells expressing hTREM2 and DAP12; 45 minutes at room temperature; Syk phosphorylation, AlphaLisa; read-out: hTREM2 EC50
Sequence (Q9NZC2 19-230): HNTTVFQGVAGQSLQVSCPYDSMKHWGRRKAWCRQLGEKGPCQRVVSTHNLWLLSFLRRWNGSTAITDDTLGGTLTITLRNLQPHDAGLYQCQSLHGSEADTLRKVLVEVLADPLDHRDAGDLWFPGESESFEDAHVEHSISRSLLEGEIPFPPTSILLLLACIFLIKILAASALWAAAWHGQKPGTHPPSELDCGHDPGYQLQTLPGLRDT
Sequence (O43914 22-113 partner): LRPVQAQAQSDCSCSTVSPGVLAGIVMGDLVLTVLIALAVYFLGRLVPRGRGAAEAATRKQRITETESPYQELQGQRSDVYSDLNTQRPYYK

smilesRepr	systemName	EC50
Cc1nc2nc(N3C[C@@H](C)O[C@@H](c4cnn(C5CC5)c4)C3)nc(C34CC(C(F)(F)F)(C3)C4)c2cc1C(F)(F)F	human TREM2 (Homo sapiens, UniProt Q9NZC2)	< 0.1 µM
COC(=O)c1cc2c(-c3ccc(F)cc3F)nc(N3C[C@@H](C)O[C@@H](c4cnn(C5CC5)c4)C3)nc2nc1C	human TREM2 (Homo sapiens, UniProt Q9NZC2)	< 0.1 µM
Cc1nc2nc([C@H]3CCO[C@@H](c4cnn(C5CC5)c4)C3)nc(C34CC(C(F)(F)F)(C3)C4)c2cc1-c1ccn(C)n1	human TREM2 (Homo sapiens, UniProt Q9NZC2)	0.1 to 0.5 µM
Cc1nnc(-c2cc3c(-c4ccc(F)cc4F)nc(N4C[C@@H](C)O[C@@H](c5cnn(C6CC6)c5)C4)nc3nc2C)s1	human TREM2 (Homo sapiens, UniProt Q9NZC2)	< 0.1 µM
Cc1nc2nc(N3C[C@@H](C)O[C@@H](c4cnn(C5CC5)c4)C3)nc(-c3ccncc3F)c2nc1C	human TREM2 (Homo sapiens, UniProt Q9NZC2)	0.1 to 0.5 µM
Cc1nc2nc([C@H]3CCO[C@@H](c4cnn(C5CC5)c4)C3)nc(C34CC(C(F)(F)F)(C3)C4)c2cc1S(C)(=O)=O	human TREM2 (Homo sapiens, UniProt Q9NZC2)	< 0.1 µM
Cc1cc2c(-c3cccs3)nc(N3C[C@@H](C)O[C@@H](c4cnn(C5CC5)c4)C3)nc2nc1C	human TREM2 (Homo sapiens, UniProt Q9NZC2)	0.1 to 0.5 µM

###

biological target: human TREM2 (Homo sapiens); construct: expressed in transfected cells; host or cells: HEK293T-hTREM2 cells (HEK cell line expressing human TREM2 and DAP12); assay: TREM2 agonist potency by cellular phosphorylation of Syk (AlphaLisa) in HEK293T-hTREM2 cells expressing human TREM2 and DAP12; type: cell-based; conditions: HEK293 cells expressing hTREM2 and DAP12; 45 minutes at room temperature; Syk phosphorylation, AlphaLisa; read-out: hTREM2 EC50
pEC50: −log10 of the molar value.
Each entry below carries its recorded pEC50.
endpoint: pEC50

compound	endpoint	readoutValue
Cc1nc2nc(N3C[C@@H](C)O[C@@H](c4cnn(C5CC5)c4)C3)nc(C34CC(C(F)(F)F)(C3)C4)c2nc1C1CN(C)C1	pEC50	6.30 to 7.00
Cc1nc2nc(C3CCOC(c4ccc5nnc(C)n5c4)C3)nc(-c3ccc(F)cc3F)c2nc1C (stereo not shown)	pEC50	> 7.00
Cc1nc2nc(N3CCO[C@@H](c4cnn(C)c4)C3)nc(C3CCCCC3)c2cc1C#N	pEC50	6.30 to 7.00
Cc1nc2nc(N3C[C@@H](C)O[C@@H](c4cnn(C5CC5)c4)C3)nc(C34CC(C(F)(F)F)(C3)C4)c2nc1C1COC1	pEC50	> 7.00
Cc1nc2nc(N3C[C@@H](C)O[C@@H](c4cnn(C5CC5)c4)C3)nc(-c3ccc(=O)n(C)c3)c2nc1C	pEC50	< 6.30
Cc1nc2nc(N3C[C@@H](C)O[C@@H](c4cnn(C5CC5)c4)C3)nc(-c3ccc(F)cc3F)c2cc1C(=O)N(C)C	pEC50	< 6.30
Cc1noc(-c2cc3c(C45CC(C(F)(F)F)(C4)C5)nc(N4C[C@@H](C)O[C@@H](c5cnn(C6CC6)c5)C4)nc3nc2C)n1	pEC50	> 7.00

###

Readings of EC50 for the listed molecules
Target: human TREM2 (Homo sapiens)
Construct: expressed in transfected cells; host or cells: HEK293T-hTREM2 cells (HEK cell line expressing human TREM2 and DAP12)
Test: TREM2 agonist potency by cellular phosphorylation of Syk (AlphaLisa) in HEK293T-hTREM2 cells expressing human TREM2 and DAP12
Type: cell-based
Conditions: HEK293 cells expressing hTREM2 and DAP12; 45 minutes at room temperature; Syk phosphorylation, AlphaLisa; read-out: hTREM2 EC50
Protocol: In vitro Measurement of Triggering Receptor Expressed on Myeloid Cells 2 activity using cellular phosphorylation of Spleen Tyrosine Kinase (“Syk”) Assays Measurement of TREM2 agonist potency was done using a HEK cell line expressing human TREM2 and DAP12 (HEK293T-hTREM2 cells). Binding of small molecules to, and activation of, TREM2 increases the phosphorylation of Syk. The resultant levels of Syk phosphorylation are measured using a commercial AlphaLisa reagent kit. […]
endpoint: EC50

molecule	systemName	readoutValue
Cc1cc2c(C3CCCC3)nc(N3C[C@@H](C)O[C@@H](c4cnn(C5CC5)c4)C3)nc2nc1C	human TREM2 (Homo sapiens)	< 100 nM
Cc1noc(-c2cc3c(-c4ccc(F)cc4F)nc([C@H]4CCO[C@@H](c5cnn(C6CC6)c5)C4)nc3nc2C)n1 (racemic)	human TREM2 (Homo sapiens)	< 100 nM
Cc1nc2nc(C3CCOC(C4CCn5nccc5C4)C3)nc(C34CC(C(F)(F)F)(C3)C4)c2nc1C (stereo not shown)	human TREM2 (Homo sapiens)	< 100 nM
CO[C@H]1CN(c2nc(-c3ccc(F)cc3F)c3nc(C)c(C)nc3n2)C[C@@H]1c1cn(C2CC2)nn1 (stereo in doubt)	human TREM2 (Homo sapiens)	100 to 500 nM
Cc1nc2nc(N3C[C@@H](C)O[C@@H](c4cnn(C5CC5)c4)C3)nc(C3CCC3)c2cc1C#N	human TREM2 (Homo sapiens)	100 to 500 nM
Cc1nc2nc(N3C[C@@H](C)O[C@@H](c4cnn(C5CC5)c4)C3)nc(C34CC(C3)C4)c2nc1C	human TREM2 (Homo sapiens)	< 100 nM
Cc1nc2nc([C@H]3CCO[C@@H](c4cnn(C5CC5)c4)C3)nc(C34C5C6C7C5C3C7C64)c2nc1C (stereo partly shown)	human TREM2 (Homo sapiens)	< 100 nM
Cc1nc2nc(N3C[C@@H](C)O[C@@H](c4cnn(C5CC5)c4)C3)nc(-c3ccc(F)cc3F)c2cc1C#N	human TREM2 (Homo sapiens)	< 100 nM
Cc1nc2nc([C@H]3CCO[C@@H](c4ccnc(N(C)C)c4)C3)nc(C34CC(C(F)(F)F)(C3)C4)c2nc1C (racemic)	human TREM2 (Homo sapiens)	< 100 nM
Cc1noc(-c2cc3c(C4CCCCC4)nc(N4C[C@@H](C)O[C@@H](c5cnn(C6CC6)c5)C4)nc3nc2C)n1	human TREM2 (Homo sapiens)	< 100 nM

###

Entries and their measured EC50 follow.
biological target: human TREM2 (Homo sapiens, UniProt Q9NZC2); construct: expressed in transfected cells; host or cells: HEK293T-hTREM2 cells (HEK cell line expressing human TREM2 and DAP12); assay: TREM2 agonist potency by cellular phosphorylation of Syk (AlphaLisa) in HEK293T-hTREM2 cells expressing human TREM2 and DAP12; type: cell-based; details: HEK293 cells expressing hTREM2 and DAP12; 45 minutes at room temperature; Syk phosphorylation, AlphaLisa; read-out: hTREM2 EC50

compound	systemName	EC50
CC(=O)c1cc2c(-c3ccc(F)cc3F)nc(N3C[C@@H](C)O[C@@H](c4cnn(C5CC5)c4)C3)nc2nc1C	human TREM2 (Homo sapiens, UniProt Q9NZC2)	< 100 nM
Cc1nc2nc(N3C[C@@H](C)O[C@@H](c4cnn(C5CC5)c4)C3)nc(C3CCCC3)c2cc1C#N	human TREM2 (Homo sapiens, UniProt Q9NZC2)	< 100 nM
Cc1nc2nc(C3CCOC(c4cnn5c4CCCC5)C3)nc(C34CC(C(F)(F)F)(C3)C4)c2nc1C (stereo not drawn)	human TREM2 (Homo sapiens, UniProt Q9NZC2)	> 500 nM
Cc1cc2cc(C3CC(c4nc(-c5ccc(F)cc5F)c5nc(C)c(C)nc5n4)CCO3)ccn2n1 (stereo not drawn)	human TREM2 (Homo sapiens, UniProt Q9NZC2)	< 100 nM
Cc1nc2nc(N3C[C@@H](C)O[C@@H](c4cnn(C5CC5)c4)C3)nc(C34CC(C(F)(F)F)(C3)C4)c2cc1C(F)(F)Cl (racemic)	human TREM2 (Homo sapiens, UniProt Q9NZC2)	100 to 500 nM
Cc1nc2nc(N3C[C@@H](C)O[C@@H](c4cnn(C5CC5)c4)C3)nc(-c3ccc(F)cc3F)c2cc1C(=O)O	human TREM2 (Homo sapiens, UniProt Q9NZC2)	> 500 nM
Cc1nc2nc(C3CCOC(c4ccc5nn(C)cc5c4)C3)nc(-c3ccc(F)cc3F)c2nc1C (stereo not drawn)	human TREM2 (Homo sapiens, UniProt Q9NZC2)	< 100 nM
Cc1nc2nc(N3C[C@@H](C)O[C@@H](c4cnn(C5CC5)c4)C3)nc(C3CCCCC3)c2cc1C#N	human TREM2 (Homo sapiens, UniProt Q9NZC2)	< 100 nM
Cc1nc2nc(N3C[C@@H](C)O[C@@H](c4cnn(C5CC5)c4)C3)nc(-c3ccc(F)cc3F)c2cc1C1=NCCO1	human TREM2 (Homo sapiens, UniProt Q9NZC2)	< 100 nM
Cc1nc2nc([C@H]3CCO[C@@H](c4cn(C)c(=O)s4)C3)nc(C34CC(C(F)(F)F)(C3)C4)c2nc1C (racemic) [Example 106]	human TREM2 (Homo sapiens, UniProt Q9NZC2)	< 100 nM
Cc1nc2c(C34CC(C(F)(F)F)(C3)C4)nc(N3C[C@@H](C)O[C@@H](c4cnn(C5CC5)c4)C3)nc2c(=O)n1C	human TREM2 (Homo sapiens, UniProt Q9NZC2)	< 100 nM
Cc1nc2nc([C@H]3CCO[C@@H](c4cn(C)c(=O)s4)C3)nc(C34CC(C(F)(F)F)(C3)C4)c2nc1C [Example 108]	human TREM2 (Homo sapiens, UniProt Q9NZC2)	< 100 nM
Cc1nc2ccc(C3CC(c4nc(-c5ccc(F)cc5F)c5nc(C)c(C)nc5n4)CCO3)cc2o1 (stereo not drawn)	human TREM2 (Homo sapiens, UniProt Q9NZC2)	< 100 nM
Cc1nc2nc(N3C[C@@H](C)O[C@@H](c4cnn(C(F)F)c4)C3)nc(C34CC(C(F)(F)F)(C3)C4)c2cc1C#N	human TREM2 (Homo sapiens, UniProt Q9NZC2)	< 100 nM
Cc1nc2nc(C3CCOC(c4ccn5nccc5c4)C3)nc(C34CC(C(F)(F)F)(C3)C4)c2nc1C (stereo not drawn)	human TREM2 (Homo sapiens, UniProt Q9NZC2)	< 100 nM
Cc1nc2nc([C@@H]3CCO[C@@H](c4ccnc(N(C)C)c4)C3)nc(C34CC(C(F)(F)F)(C3)C4)c2nc1C (racemic)	human TREM2 (Homo sapiens, UniProt Q9NZC2)	100 to 500 nM
Cc1nc2nc([C@H]3CCO[C@@H](c4cnn(C5CC5)c4)C3)nc(C34CC(C(F)(F)F)(C3)C4)c2cc1C#N	human TREM2 (Homo sapiens, UniProt Q9NZC2)	< 100 nM
Cc1nc2nc(N3C[C@@H](C)O[C@@H](c4cnn(C5CC5)c4)C3)nc(C34CC(C(F)(F)F)(C3)C4)c2nc1C1CN(C(=O)OC(C)(C)C)C1	human TREM2 (Homo sapiens, UniProt Q9NZC2)	> 500 nM
Cc1nnc(-c2cc3c(-c4ccc(F)cc4F)nc(N4C[C@@H](C)O[C@@H](c5cnn(C6CC6)c5)C4)nc3nc2C)o1	human TREM2 (Homo sapiens, UniProt Q9NZC2)	< 100 nM
Cc1nc2nc([C@H]3CCO[C@@H](c4cnn(C5CC5)c4)C3)nc(C34C5C6C3C3C4C5C63C(F)(F)F)c2nc1C (stereo partly drawn)	human TREM2 (Homo sapiens, UniProt Q9NZC2)	< 100 nM
Cc1nc2nc([C@H]3CCO[C@@H](c4cnn(C5CC5)c4)C3)nc(C34CC(C(F)(F)F)(C3)C4)c2cc1-c1cn(C)nn1	human TREM2 (Homo sapiens, UniProt Q9NZC2)	> 500 nM
Cc1nc2ccc(C3CC(c4nc(-c5ccc(F)cc5F)c5nc(C)c(C)nc5n4)CCO3)cc2s1 (stereo not drawn)	human TREM2 (Homo sapiens, UniProt Q9NZC2)	< 100 nM
Cc1nc2nc([C@H]3CCO[C@@H](c4cnn(C5CC5)c4)C3)nc(C34CC(C(F)(F)F)(C3)C4)c2cc1[S+](C)[O-] (stereo partly drawn)	human TREM2 (Homo sapiens, UniProt Q9NZC2)	< 100 nM
Cc1cc2c(-c3ccc(C(F)(F)F)cc3F)nc([C@H]3CCO[C@@H](c4cnn(C5CC5)c4)C3)nc2c(=O)n1C	human TREM2 (Homo sapiens, UniProt Q9NZC2)	< 100 nM
